# Tested On: T1, human C1s (human, UniProt P09871 16-688)
# T1 construct: Analyte in the Biacore assays; also called hC1s; serum-derived human C1s (CompTech)
# T1 sequence: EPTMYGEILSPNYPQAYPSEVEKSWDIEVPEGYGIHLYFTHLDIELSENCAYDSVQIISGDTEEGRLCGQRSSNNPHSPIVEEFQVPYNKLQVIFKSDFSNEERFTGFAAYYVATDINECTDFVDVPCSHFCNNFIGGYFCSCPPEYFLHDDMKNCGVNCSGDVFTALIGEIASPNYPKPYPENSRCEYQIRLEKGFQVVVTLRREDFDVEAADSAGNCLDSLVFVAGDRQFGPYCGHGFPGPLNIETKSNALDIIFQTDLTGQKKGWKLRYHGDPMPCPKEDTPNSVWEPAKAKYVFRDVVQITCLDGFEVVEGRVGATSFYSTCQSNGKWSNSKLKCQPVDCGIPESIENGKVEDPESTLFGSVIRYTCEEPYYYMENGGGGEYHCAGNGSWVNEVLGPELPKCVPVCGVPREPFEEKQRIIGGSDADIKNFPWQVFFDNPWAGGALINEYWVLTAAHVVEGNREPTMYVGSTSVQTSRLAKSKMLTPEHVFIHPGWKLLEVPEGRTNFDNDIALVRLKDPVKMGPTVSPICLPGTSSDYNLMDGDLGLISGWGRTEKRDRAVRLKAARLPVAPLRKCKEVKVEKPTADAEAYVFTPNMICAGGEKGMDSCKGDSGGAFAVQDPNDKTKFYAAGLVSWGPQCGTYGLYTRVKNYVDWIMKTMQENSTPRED
# Test Method Notes: SPR (Biacore T200, 37C), Ab captured on protein A/G; pH 5.8, 1.2 mM Ca
Could you please report measured kon for the items listed next?
Numbers only, in M⁻¹ s⁻¹.

Reference set, count: 2
C1_IPN92H0231-SG4GK/IPN93L0024-SK1 (antibody, human IgG4 S228P, kappa, name in Kabat numbering, V domains shown, Substitutions from IPN009VH2, Kabat numbering; also called IPN92H0231/IPN93L0024) VH: EVMLVESGGGLVKPGGSLRLSCAASGFTFSNYAMSWVRQAPGKGLEWVATISSGGSHTYYLDSVKGRFTISRDNSKDTLYLQMNSLRAEDTALYYCARLFTKHAMDYWGQGTLVTVSS VL: QIVLTQSPATLSLSPGERATLSCTASSSVSSSYLHWYQQKPGKAPKLWIYSTSNLASGVPSRFSGSGSGTDYTLTISSLQPEDFATYYCHQYYRLHPITFGQGTKLEIKR    568000
C1_IPN92H0145-SG4GK/IPN93L0024-SK1 (antibody, human IgG4 S228P, kappa, name in Kabat numbering, V domains shown, Substitutions from IPN009VH2, Kabat numbering; also called IPN92H0145/IPN93L0024) VH: EVMLVESGGGLVKPGGSLRLSCAASGFTFSNYAMSWVRQAPGKGLEWVATISSGGSRTYYLDSVKGRFTISRDNSKDTLYLQMNSLRAEDTALYYCARLFTGHAMDYWGQGTLVTVSS VL: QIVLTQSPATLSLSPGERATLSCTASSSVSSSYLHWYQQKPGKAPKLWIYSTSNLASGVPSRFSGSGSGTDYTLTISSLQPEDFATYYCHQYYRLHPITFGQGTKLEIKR    2.58e+06

Continue with the binder presented below.
// sample C1_IPN92H0288-SG4GK/IPN93L0212-SK1 (antibody, human IgG4 S228P, kappa, name in Kabat numbering, V domains shown, VL substitutions from IPN009VK3, Kabat numbering; also called IPN92H0288/IPN93L0212) VH: EVMLVESGGGLVKPGGSLRLSCAASGFTFSNYAMSWVRQAPGKGLEWVATISSGGSHTYELDSVDGRFTISRDNSKDTLYLQMNSLRAEDTALYYCARLFTKHAMDYWGQGTLVTVSS VL: QIVLTQSPATLSLSPGERATLSCTASSEVSESRLHWYQQKPGKAPKLWIYSTSNLASGVPSRFSGSGSGTDYTLTISSLQPEDFATYYCHQYYRLHPITFGQGTKLEIKR , its kon was 945000

Ref: patent US20210032365A1
